Experiment: Biodistribution by LC-Mass Spectral analysis
Details: mouse, blood, po, 3 mg/kg, Concentration, mice, 3 mg/kg (table)
recorded-endpoint: concentration at 4 h (ng/mL)

[P] Cc1ccc(CNCCCN(Cc2ccc(C(=O)O)cc2)Cc2cc(C(F)(F)F)cc(C(F)(F)F)c2)cc1 [Compound 9]
[Q] CN(CCOc1ccc(CC2SC(=O)NC2=O)cc1)c1ccccn1 (centres unmarked) [Rosiglitazone, rosiglitazone, reference compound]
### Prompt Exercise: compare P and Q ; which one has the greater concentration at 4 h? Kindly give the label for the entry you pick.
### Response Q

----------
Assay: Biodistribution by LC-Mass Spectral analysis
Settings: mouse, heart, po, 3 mg/kg, Concentration, mice, 3 mg/kg (table)
recorded-endpoint: concentration at 4 h (ng/mL)

[1] CN(CCOc1ccc(CC2SC(=O)NC2=O)cc1)c1ccccn1 (centres unmarked) [Rosiglitazone, rosiglitazone, reference compound]
[2] Cc1ccc(CNCCCN(Cc2ccc(C(=O)O)cc2)Cc2cc(C(F)(F)F)cc(C(F)(F)F)c2)cc1 [Compound 9]
### Prompt // compare measured concentration at 4 h between 1 and 2 ; output the lower one Record your answer as the label of the chosen record.
### Response 1
